All figures here come from ChEMBL document CHEMBL5058577.

Test system: HEK-293T
Test: Multiplex assay against HEK293T
Type: toxicity, cell-based
Details: human, 24 h, 10 µM, compound concentration 10 uM, replicate 2
Assign Population Membrane Permeable-Phenotype (%) to each entry below.

Test system HEK-293T; read-out Population Membrane Permeable-Phenotype (%); what value for COc1cc2nc(N3CCN(C(=O)c4ccco4)CC3)nc(N)c2cc1OC.Cl [PRAZOSIN HYDROCHLORIDE] ? 1%

Test system HEK-293T; read-out Population Membrane Permeable-Phenotype (%); what value for COc1cc(Nc2ncc3c(n2)-c2ccc(Cl)cc2C(c2c(F)cccc2OC)=NC3)ccc1C(=O)O ? 1%

Test system HEK-293T; read-out Population Membrane Permeable-Phenotype (%); what value for Cc1cc(-c2ccc3c(c2)CC[C@H]3N2CC3(CCN(C(=O)Cc4cn5cc(C)sc5n4)CC3)C2)ncn1 ? 0%

Test system HEK-293T; read-out Population Membrane Permeable-Phenotype (%); what value for COc1ccc2[nH]c(I)c(CCNC(C)=O)c2c1 ? 0%

Test system HEK-293T; read-out Population Membrane Permeable-Phenotype (%); what value for Cn1cc(C(=O)OCC2CCN(CCNS(C)(=O)=O)CC2)c2ccccc21 ? 0%

Test system HEK-293T; read-out Population Membrane Permeable-Phenotype (%); what value for CSc1nc(NC2CCCC2)c([N+](=O)[O-])c(NC2CCCC2)n1 ? 0%

Test system HEK-293T; read-out Population Membrane Permeable-Phenotype (%); what value for CCn1c(-c2nc3cc(C(=O)N4CCCC(N)C4)ccc3n2C)cc2ccccc21.Cl (centres undefined) ? 0%

Test system HEK-293T; read-out Population Membrane Permeable-Phenotype (%); what value for Cc1ccc(OCC(O)C(C)NC(C)C)c2c1CCC2.Cl (centres undefined) ? 0%

Test system HEK-293T; read-out Population Membrane Permeable-Phenotype (%); what value for Nc1nc(-c2ccco2)c2cnn(Cc3ccccc3F)c2n1 ? 0%

Test system HEK-293T; read-out Population Membrane Permeable-Phenotype (%); what value for Cc1sc2c(c1C)C(c1ccc(Cl)cc1)=N[C@H](CC(=O)OC(C)(C)C)c1nnc(C)n1-2 ? 1%

Test system HEK-293T; read-out Population Membrane Permeable-Phenotype (%); what value for OCCCNc1cc(-c2ccnc(Nc3cccc(Cl)c3)n2)ccn1 ? 3%

Test system HEK-293T; read-out Population Membrane Permeable-Phenotype (%); what value for CC(C)(O)C(=O)N1CCN(c2ccc(C(F)(F)F)c(C3=C(c4c[nH]c5ccccc45)C(=O)NC3=O)c2)CC1 ? 0%

Test system HEK-293T; read-out Population Membrane Permeable-Phenotype (%); what value for Cc1cc(O)c(-c2ccc([C@@H](C)CN(C)C)cc2)c2c1[nH]c(=O)c1sccc12 ? 0%

Test system HEK-293T; read-out Population Membrane Permeable-Phenotype (%); what value for S=C(NCCCc1c[nH]cn1)NCCCN(Cc1ccc(Cl)c(Cl)c1)c1ccc(Br)cn1 ? 0%

====

System: Fibroblast
Test: Multiplex assay against human fibroblast
Format: toxicity, cell-based
Conditions: 12 h, 10 µM, compound concentration 10 uM, replicate 2
Non-standard residues stand in square brackets, D forms with d. Residues, ends and D or L forms follow the SMILES beside them.
Assign Population Pyknosed Nuclei (%) to each entry below.
Unit % implied. Number only.

Name the recorded Population Pyknosed Nuclei (%) for CN1C[C@H](C(=O)N[C@]2(C)O[C@@]3(O)[C@@H]4CCCN4C(=O)[C@H](Cc4ccccc4)N3C2=O)C[C@@H]2c3cccc4[nH]cc(c34)C[C@H]21.CS(=O)(=O)O [DIHYDROERGOTAMINE MESYLATE] . 21

Name the recorded Population Pyknosed Nuclei (%) for CC(C)(O)C(=O)N1CCN(c2ccc(C(F)(F)F)c(C3=C(c4c[nH]c5ccccc45)C(=O)NC3=O)c2)CC1 . 42

Name the recorded Population Pyknosed Nuclei (%) for CN(C)C(=O)Cn1cc(-c2ccc(-c3nnc4ccccn34)cc2)cn1 . 29

Name the recorded Population Pyknosed Nuclei (%) for Cc1cc(-c2ccc3c(c2)CC[C@H]3N2CC3(CCN(C(=O)Cc4cn5cc(C)sc5n4)CC3)C2)ncn1 . 24

Name the recorded Population Pyknosed Nuclei (%) for O=c1nc2[nH]c3ccccc3nc-2c(=O)[nH]1 . 20

Name the recorded Population Pyknosed Nuclei (%) for CC(C)C[C@@H]1NC(=O)[C@@H](C(C)C)NC(=O)[C@@H]2CCCN2C(=O)[C@@H](CC(=O)O)NC(=O)[C@@H](Cc2c[nH]c3ccccc23)NC1=O [BQ-123] (cyclo(L[dW][dD]P[dV])) . 20
